biological target: IGF2 (Homo sapiens, UniProt P01344); assay: SPR (Biacore T200) of recombinant IGF2R domain 11 mutants on immobilised biotinylated IGF2; assay type: binding; parameters: purchased GroPep; conditions: Table 4; MES-EP pH 6.5
Sequence (P01344 25-91): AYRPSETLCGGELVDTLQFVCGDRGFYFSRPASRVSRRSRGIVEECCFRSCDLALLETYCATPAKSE
quantity-name: Kinetics koff (s⁻¹)
Answer format: numeric, s⁻¹ implied, no suffix.

Challenge: Return value of Kinetics koff for input AB5 Q1569R P1597H: domain 11 AB5 + Q1569R, P1597H (protein) MKSNEHDDCQVTNPSTGHLFDLSSLSGRAGFTAAYAKGWGVYMSICGENENCPPGVGACFGRTRISVGKANKRLRYVDQVLQLVYKDGSHCPSKSGLSYKSVISFVCRPEAGPTNRPMLISLDKQTCTLFFSWHTPLACEQATECSV , no commentary.
Response given: 0.0034

Challenge: # return recorded Kinetics koff for entry WT: wild-type human IGF2R domain 11 (residues 1511-1650), AB loop YSEKGL (protein) MKSNEHDDCQVTNPSTGHLFDLSSLSGRAGFTAAYSEKGLVYMSICGENENCPPGVGACFGQTRISVGKANKRLRYVDQVLQLVYKDGSPCPSKSGLSYKSVISFVCRPEAGPTNRPMLISLDKQTCTLFFSWHTPLACEQATECSV
Response given: 0.1441

Challenge: Tell me its Kinetics koff given AB3: IGF2R domain 11 with AB loop mutations E1544K, K1545S, L1547V (YSKSGV) (protein) MKSNEHDDCQVTNPSTGHLFDLSSLSGRAGFTAAYSKSGVVYMSICGENENCPPGVGACFGQTRISVGKANKRLRYVDQVLQLVYKDGSPCPSKSGLSYKSVISFVCRPEAGPTNRPMLISLDKQTCTLFFSWHTPLACEQATECSV as the entry.
Response given: 0.0381

Challenge: Complete the entry with Kinetics koff for AB3 Q1569R P1597H: domain 11 AB3 + Q1569R, P1597H (protein) MKSNEHDDCQVTNPSTGHLFDLSSLSGRAGFTAAYSKSGVVYMSICGENENCPPGVGACFGRTRISVGKANKRLRYVDQVLQLVYKDGSHCPSKSGLSYKSVISFVCRPEAGPTNRPMLISLDKQTCTLFFSWHTPLACEQATECSV
Response given: 0.0091

// data source = patent US10494415B2
